Sourced from the supplement of paper PMC8728848

- Target Or System: Fuc(a1-3)[Gal(b1-4)]GlcNAc(b1-4)Gal(b1-4)[Fuc(a1-3)]GlcNAc(b1-4)Gal(b1-4)[Fuc(a1-3)]GlcNAc
- Experiment: glycan array binding signal (z-score within array); higher = stronger binding
- Assay Setup: glycan notation: IUPAC condensed, linker removed
The entries come from a sample that favours the strongest signals as a whole.
Provide the reported glycan array binding signal (z-score) of each item.
Numbers only.

Examples from the recorded data:
Binder	glycan array binding signal (z-score)
MGL1 (Mus musculus), P49300 (protein) MIYENLQNSRIEEKTQEPGKAPSQSFLWRILSWTHLLLFSLGLSLLLLVVVSVIGSQNSQLRRDLGTLRATLDNTTSKIKAEFQSLDSRADSFEKGISSLKVDVEDHRQELQAGRDLSQKVTSLESTVEKREQALKTDLSDLTDHVQQLRKDLKALTCQLANLKNNGSEVACCPLHWTEHEGSCYWFSESEKSWPEADKYCRLENSHLVVVNSLEEQNFLQNRLANVVSWIGLTDQNGPWRWVDGTDFEKGFKNWAPLQPDNWFGHGLGGGEDCAHITTGGPWNDDVCQRTFRWICEMKLAKES	9.12
Flo5 (Saccharomyces cerevisiae), P38894 (protein) MGSSHHHHHHSSGLVPRGSHMSGATEACLPAGQRKSGMNINFYQYSLKDSSTYSNAAYMAYGYASKTKLGSVGGQTDISIDYNIPCVSSSGTFPCPQEDSYGNWGCKGMGACSNSQGIAYWSTDLFGFYTTPTNVTLEMTGYFLPPQTGSYTFSFATVDDSAILSVGGSIAFECCAQEQPPITSTNFTINGIKPWDGSLPDNITGTVYMYAGYYYPLKVVYSNAVSWGTLPISVELPDGTTVSDNFEGYVYSFDDDLSQSNCTIPDPSIH	-0.162
KISKRILTGKK [NK11 (Sus scrofa)]	-0.886
Gal 8 (Homo sapiens) (protein) MLSLNNLQNIIYNPVIPYVGTIPDQLDPGTLIVICGHVPSDADRFQVDLQNGSSVKPRADVAFHFNPRFKRAGCIVCNTLINEKWGREEITYDTPFKREKSFEIVIMVLKDKFQVAVNGKHTLLYGHRIGPEKIDTLGIYGKVNIHSIGFSFSSDLQSTQASSLELTEISRENVPKSGTPQLQTVSPSWDLQGHGSETFCSVLWTRVFLEIAFCRPIGLTVASFQSLPFAARLNTPMGPGRTVVVKGEVNANAKSFNVDLLAGKSKDIALHLNPRLNIKAFVRNSFLQESWGEEERNITSFPFSPGMYFEMIIYCDVREFKVAVNGVHSLEYKHRFKELSSIDTLEINGDIHLLEVRSW	-0.35
Siglec-H (Mus musculus), Q4QQK7 (protein) MLLSRLLPLLWVLKWASGNCFILPREVIGTYPSLTLELQSVTVQEGLCVLVPCHLIEYPMNRWSDAAFGYWFHEGENTHPDSLVATNKPYQLVQKEMQSRFHFSGDCSLDIRDAQKGDNGSYFFRLEKGGKTWNFCEERISVHVTDLTHSPNISIPQTLELGRPTNVMCSVPWACERGTPPIFSWMSAALISLGPTTTLSSVLTLTPRLQDHGTNLTCQVTFPGAGVTVQKTIQLNVTYNSQNSTAHVSGRVGPGKPRPLADVVQVAMGEAAIKFLLLGICFFFLSKRSHTKRVERPATHMDQAHAVMD	-0.236

Give one value of glycan array binding signal (z-score) per listed binder.
1. DC SIGN CRD (Homo sapiens), Q9NNX6 (protein) QPCPWEWTFFQGNCYFMSNSQRNWHDSITACKEVGAQLVVIKSAEEQNFLQLQSSRSNRFTWMGLSDLNQEGTWQWVDGSPLLPSFKQYWNRGEPNNVGEEDCAEFSGNGWNDDKCNLAKFWICKKSAWSHPQFEK
2. HPA (Helix pomatia), Q575S3 (protein) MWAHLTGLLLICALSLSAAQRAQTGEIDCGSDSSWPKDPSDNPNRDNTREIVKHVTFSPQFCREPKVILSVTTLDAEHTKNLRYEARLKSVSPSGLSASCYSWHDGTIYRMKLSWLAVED

1: 5.8; 2: -0.271
